B1: COUP transcription factor 1, residues 83 to 159; numbered along this chain, P10589 (parent)
chain: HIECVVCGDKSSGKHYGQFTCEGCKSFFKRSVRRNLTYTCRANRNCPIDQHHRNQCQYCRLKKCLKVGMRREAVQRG

# Variants of: B1
# protocol_description: abundance fitness (aPCA) (normalised: wild type 0, dead -1); higher = more abundant; growth selection in yeast, the domain comes from the species named
# condition_summary: Homo sapiens
So basically: abundance fitness at -0.09 or higher? That is class 1. Lower than -0.09? That is class 0.

{"columns": ["mutant", "cat"],
 "data": [
  ["E72P", "class 0"]
]}

Next, consider the following variant.
Problem: Answer whether abundance fitness of C56G is greater than or equal to -0.09.
Solution: class 0

Numbers sourced from the Human Domainome abundance scans (Beltran et al. 2025).
